Provenance of the data: patent US7683055B2

Tested on: NSC-34 cells
assay-explanation: NSC-34 viability in cytokine-conditioned EOC-20 microglial medium (tetrazolium reduction)
Type: cell-based, mouse
experimental-context: Mus musculus, NSC-34; cytokine-conditioned EOC-20 medium; read-out: concentration necessary to achieve half-maximal protective efficacy
pEC50: −log10 of the molar value.

molecule	pEC50
CCOC(=O)[C@@H]1CSCC(C(=O)O)=N1 [(R)-LKE1]	> 6.00
